Numbers sourced from patent US20240101546A1.

Tested on: hepatocellular carcinoma cell line Hub-7
Method: Cell proliferation assay, Hub-7 (CELL-TITER GLO)
Type: cell-based
Condition notes: Hub-7 cells, 24 h incubation, cell viability by CELL-TITER GLO, top concentration 10 μM; read-out: EC50, Inhibition of Hub-7 Cell Proliferation
pEC50: −log10 of the molar value.
Observation type: pEC50

Lab note: C#Cc1nc(C(=O)NC2CCN(c3ccccc3)CC2)cs1 gave pEC50 of 6.00 to 6.70

Lab note: C#Cc1nc(C(=O)NCc2ccccc2)co1 [Compound C142, N-Benzyl-2-ethynyloxazole-4-carboxamide] gave pEC50 of < 5.30

Lab note: C#Cc1nc(C(=O)NCCc2cccc(N)c2)cs1 gave pEC50 of 5.30 to 6.00

Lab note: C#Cc1nc(C(=O)N2CCN(c3ccc(-c4cccc5ncsc45)cc3C#N)CC2)cs1 gave pEC50 of ≥ 6.70

Lab note: C#Cc1nc(C(=O)NCCc2cccc(-c3cccc4c3CC(=O)N4C)c2)cs1 gave pEC50 of 5.30 to 6.00

Lab note: C#Cc1nc(C(=O)N(C)Cc2ccccc2)cs1 gave pEC50 of 5.30 to 6.00

Lab note: C#Cc1nc(C(=O)NC[C@@H](O)c2ccccc2)cs1 gave pEC50 of 5.30 to 6.00

Lab note: C#Cc1nc(C(=O)NCc2ccc(S(C)(=O)=O)cc2)cs1 gave pEC50 of 5.30 to 6.00

Lab note: C#Cc1nc(C(=O)NCc2ccc3c(c2)OCCO3)cs1 gave pEC50 of 5.30 to 6.00

Lab note: C#Cc1nc(C(=O)NCCc2ccc(-c3ccn(C)n3)cc2)cs1 gave pEC50 of 5.30 to 6.00

Lab note: C#Cc1nc(C(=O)NCc2cccc(Cl)c2)c(C)s1 gave pEC50 of 6.00 to 6.70

Lab note: C#Cc1nc(C(=O)NCCc2cccc(Cl)c2)cs1 gave pEC50 of 6.00 to 6.70

Lab note: C#Cc1nc(C(=O)N2CCN(c3ccc(-c4cccc5c4cnn5C)cc3)CC2)cs1 gave pEC50 of ≥ 6.70

Lab note: C#Cc1nc(NC(=O)N2CCC(c3ccc(-c4cccc5ncsc45)cc3)CC2)cs1 gave pEC50 of ≥ 6.70

Lab note: C#Cc1nc(C(=O)NCc2ccccc2)c[nH]1 gave pEC50 of < 5.30

Lab note: C#Cc1nc(C(=O)N2CCN(c3ccc(-c4cc(C(=O)OC)cc5ncsc45)cc3)CC2)cs1 gave pEC50 of ≥ 6.70

Lab note: C#Cc1nc(C(=O)NCCc2ccc(NC(C)=O)cc2)cs1 gave pEC50 of 5.30 to 6.00

Lab note: C#Cc1nc(C(=O)NCc2cccc(Cl)c2)c(-c2ccccc2)s1 gave pEC50 of 5.30 to 6.00

Lab note: C#Cc1nc(C(=O)NCCc2ccc(-c3cccc4ncsc34)c(F)c2)cs1 gave pEC50 of ≥ 6.70

Lab note: C#Cc1nc(C(=O)N2CCN(c3ccc(-c4cc(C(N)=O)cc5ncsc45)cc3)CC2)cs1 gave pEC50 of 5.30 to 6.00

Lab note: C#Cc1nc(C(=O)N2CCN(c3ccc(-c4cccc5nn(C)cc45)cc3)CC2)cs1 gave pEC50 of ≥ 6.70

Lab note: C#Cc1nc(C(=O)NCCc2cccc(NS(C)(=O)=O)c2)cs1 gave pEC50 of 5.30 to 6.00

Lab note: C#Cc1nc(C(=O)NCc2ccn(C)n2)cs1 gave pEC50 of < 5.30

Lab note: C#Cc1nc(NC(=O)[C@H](N)Cc2ccccc2)cs1 gave pEC50 of 6.00 to 6.70

Lab note: C#Cc1nc(NC(=O)N2CC(c3ccc(-c4cccc5ncsc45)cc3)C2)cs1 gave pEC50 of ≥ 6.70

Lab note: C#Cc1nc(C(=O)NCc2ccc(-c3cccc4[nH]ccc34)cc2)cs1 gave pEC50 of 5.30 to 6.00

Lab note: C#Cc1nc(C(=O)NCCc2ccc(-c3cccc4c3ccn4C)cc2)cs1 gave pEC50 of ≥ 6.70

Lab note: C#Cc1nc(C(=O)N(CCC(=O)OCC)Cc2ccccc2)cs1 gave pEC50 of 5.30 to 6.00

Lab note: C#Cc1nc(NC(=O)NCc2ccc(-c3cccc4ccnc(O)c34)cc2)cs1 gave pEC50 of 6.00 to 6.70

Lab note: C#Cc1nc(C(=O)NCc2ccc(-c3cc[nH]n3)cc2)cs1 gave pEC50 of 5.30 to 6.00

Lab note: C#Cc1nc(C(=O)NCCc2ccc(C(=O)OC)cc2)cs1 gave pEC50 of 5.30 to 6.00

Lab note: C#Cc1nc(C(=O)N2CCN(c3ccccc3)CC2)cs1 gave pEC50 of 6.00 to 6.70

Lab note: C#Cc1nc(C(=O)NCc2ccc(-c3cnn(C)c3)cc2)cs1 gave pEC50 of 5.30 to 6.00

Lab note: C#Cc1nc(C(=O)NCc2cccc(-c3cc[nH]n3)c2)cs1 gave pEC50 of 6.00 to 6.70

Lab note: C#Cc1nc(NC(=O)C=Cc2ccccc2)cs1 [Compound E11, N-(2-Ethynylthiazol-4-yl)cinnamamide] gave pEC50 of 6.00 to 6.70

Lab note: C#Cc1nc(C(=O)NCCc2ccc(N)cc2)cs1 gave pEC50 of 5.30 to 6.00

Lab note: C#Cc1nc(C(=O)NCc2ccccc2N)cs1 gave pEC50 of 5.30 to 6.00

Lab note: C#Cc1nc(C(=O)NCCc2cccc(-c3cccc4c3ccn4C)c2)cs1 gave pEC50 of 6.00 to 6.70

----------
Tested on: hepatocellular carcinoma cell line Hub-7
Method: Cell proliferation assay, Hub-7 (CELL-TITER GLO)
Assay type: cell-based
Condition notes: Hub-7 cells, 24 h incubation, cell viability by CELL-TITER GLO, top concentration 10 μM; read-out: EC50, Inhibition of Hub-7 Cell Proliferation
Description: The activity of a compound was determined in a cell proliferation assay using the hepatocellular carcinoma cell line Hub-7. Cells (4,000 cells per well) were seeded in a 96-well tissue culture plate. […] After the cells were incubated for 24 h, cell viability was determined using a CELL-TITER GLO® assay. The CELL-TITER GLO® reagent (50 μL) was added to each well and the luminescence was measured by a multimode microplate reader after a brief period of shaking. […]
pEC50: −log10 of the molar value.
For each entry below, report its pEC50 value.

Lab note: C#Cc1nc(C(=O)NCCc2ccc(Br)cc2)cs1 gave pEC50 of 6.00 to 6.70

Lab note: C#Cc1nc(C(=O)N2CCC(F)(c3ccc(-c4cccc5ncsc45)cc3)CC2)cs1 gave pEC50 of ≥ 6.70

Lab note: C#Cc1nc(C(=O)N2CCCC(C(=O)OC)C2)cs1 (centres unmarked) gave pEC50 of < 5.30

Lab note: C#Cc1nc(C(=O)N2CCC(C(=O)OC)CC2)cs1 gave pEC50 of < 5.30

Lab note: C#Cc1nc(C(=O)NCc2ccc(O)cc2)cs1 gave pEC50 of 5.30 to 6.00

Lab note: C#Cc1nc(NC(=O)N2CCCC2c2ccc(-c3cccc4ncsc34)cc2)cs1 (centres unmarked) gave pEC50 of 6.00 to 6.70

Lab note: C#Cc1nc(C(=O)NCCc2ccc(-c3cccc4[nH]ccc34)cc2)cs1 gave pEC50 of 6.00 to 6.70

Lab note: C#Cc1nc(C(=O)NCCc2ccc(-c3cc(C(N)=O)cc4ncsc34)cc2)cs1 gave pEC50 of 6.00 to 6.70

Lab note: C#Cc1nc(C(=O)NCc2cnn(C)c2)cs1 gave pEC50 of < 5.30

Lab note: C#Cc1nc(C(=O)N2CCC(c3ccccc3)CC2)cs1 gave pEC50 of 6.00 to 6.70

Lab note: C#Cc1nc(C(=O)N2CCC(c3cccc(-c4cccc5ncsc45)c3)CC2)cs1 gave pEC50 of 6.00 to 6.70

Lab note: C#Cc1nc(C(=O)N2CCc3ccccc3C2)cs1 gave pEC50 of 6.00 to 6.70

Lab note: C#Cc1nc(C(=O)N2CC(c3ccc(-c4cccc5ncsc45)cc3)C2)cs1 gave pEC50 of ≥ 6.70

Lab note: C#Cc1nc(C(=O)NCCc2cccc(-c3cccc4[nH]ncc34)c2)cs1 gave pEC50 of 6.00 to 6.70

----------
For each entry below, report its pEC50 value.
Tested on: hepatocellular carcinoma cell line Hub-7
Method: Cell proliferation assay, Hub-7 (CELL-TITER GLO)
Format: cell-based
Condition notes: Hub-7 cells, 24 h incubation, cell viability by CELL-TITER GLO, top concentration 10 μM; read-out: EC50, Inhibition of Hub-7 Cell Proliferation
Method: The activity of a compound was determined in a cell proliferation assay using the hepatocellular carcinoma cell line Hub-7. Cells (4,000 cells per well) were seeded in a 96-well tissue culture plate. […] After the cells were incubated for 24 h, cell viability was determined using a CELL-TITER GLO® assay. The CELL-TITER GLO® reagent (50 μL) was added to each well and the luminescence was measured by a multimode microplate reader after a brief period of shaking. […]
pEC50: −log10 of the molar value.

Lab note: C#Cc1nc(C(=O)NCc2ccc3ccccc3c2)cs1 gave pEC50 of ≥ 6.70

Lab note: C#Cc1nc(C(=O)NCCc2ccc(-c3ccccc3S(=O)(=O)N(C)C)cc2)cs1 gave pEC50 of ≥ 6.70

Lab note: C#Cc1nc(C(=O)NCCc2cccc(-c3cccc4nn(C)cc34)c2)cs1 gave pEC50 of 6.00 to 6.70

Lab note: C#Cc1nc(C(=O)NCCc2ccc(-c3ccc4ncsc4c3)cc2)cs1 gave pEC50 of 6.00 to 6.70

Lab note: C#Cc1ncc(C(=O)N2CCN(c3ccc(-c4cccc5scnc45)cc3)CC2)s1 gave pEC50 of 6.00 to 6.70

Lab note: C#Cc1nc(NC(=O)NCc2ccc(-c3ccccc3S(=O)(=O)NC)cc2)cs1 gave pEC50 of 6.00 to 6.70

Lab note: C#Cc1nc(C(=O)N2CCN(c3ccc(-c4cccc5ncsc45)cn3)CC2)cs1 gave pEC50 of ≥ 6.70

Lab note: C#Cc1nc(C(=O)N2CCCC(CO)C2)cs1 (stereo not drawn) gave pEC50 of < 5.30

Lab note: C#Cc1nc(C(=O)NCCc2cccc(-c3cccc4c3CC(=O)N4)c2)cs1 gave pEC50 of 6.00 to 6.70

Lab note: C#Cc1nc(C(=O)NC2(c3cccc(Cl)c3)CC2)cs1 gave pEC50 of 6.00 to 6.70

Lab note: C#Cc1nc(C(=O)NCCc2cccc(-c3cncs3)c2)cs1 gave pEC50 of 6.00 to 6.70

Lab note: C#Cc1nc(C(=O)NCCc2ccc(-c3ccccc3S(C)(=O)=O)cc2)cs1 gave pEC50 of 6.00 to 6.70

Lab note: C#Cc1nc(C(=O)NCc2ccccc2)cs1 [Compound C148, N-Benzyl-2-ethynylthiazole-4-carboxamide] gave pEC50 of 5.30 to 6.00

Lab note: C#Cc1nc(NC(=O)CCc2ccccc2)cs1 gave pEC50 of 6.00 to 6.70

Lab note: C#Cc1nc(C(=O)NCc2ccc(C(=O)OC)cc2)cs1 gave pEC50 of 6.00 to 6.70

Lab note: C#Cc1nc(C(=O)NCCc2ccc(O)c(OC)c2)cs1 gave pEC50 of 5.30 to 6.00

Lab note: C#Cc1nc(NC(=O)NCc2ccc(-c3cccc4ncnc(O)c34)cc2)cs1 gave pEC50 of ≥ 6.70

Lab note: C#Cc1nc(NC(=O)NCc2ccc(-c3cccc(C(N)=O)c3)cc2)cs1 gave pEC50 of 6.00 to 6.70

Lab note: C#Cc1nc(C(=O)NCCc2ccccc2Cl)cs1 gave pEC50 of 6.00 to 6.70

Lab note: C#Cc1nc(NC(=O)NCc2ccc(-c3cc4ncsc4c4c3CNC4=O)cc2)cs1 gave pEC50 of 6.00 to 6.70

Lab note: C#Cc1nc(NC(=O)N2Cc3ccc(-c4cccc5ncsc45)cc3C2)cs1 gave pEC50 of 6.00 to 6.70

Lab note: C#Cc1nc(C(=O)NCCc2ccc(-c3cccc4c3CNC4=O)cc2)cs1 gave pEC50 of ≥ 6.70

Lab note: C#Cc1nc(C(=O)N2CCN(c3ccc(-c4cc(C(=O)NC)cc5ncsc45)cc3)CC2)cs1 gave pEC50 of 6.00 to 6.70

Lab note: C#Cc1nc(C(=O)NCc2ccc(-c3cccnc3)cc2)cs1 gave pEC50 of 6.00 to 6.70

Lab note: C#Cc1nc(NC(=O)NCc2ccc(-c3cccc(N4CCCC4)c3)cc2)cs1 gave pEC50 of ≥ 6.70

Lab note: C#Cc1nc(C(=O)N2CCCCC2CCO)cs1 (stereo not drawn) gave pEC50 of < 5.30

Lab note: C#Cc1nc(C(=O)NCCc2ccc(-c3cccc4c3C(=O)NC4)cc2)cs1 gave pEC50 of 6.00 to 6.70

Lab note: C#Cc1nc(NC(=O)NCc2ccc(-c3cc(C(N)=O)cc4c3cnn4C)cc2)cs1 gave pEC50 of 5.30 to 6.00

Lab note: C#Cc1nc(C(=O)NCCc2ccc(-c3cccc4c3CC(=O)N4)cc2)cs1 gave pEC50 of 6.00 to 6.70

Lab note: C#Cc1nc(C(=O)NCCc2ccc(-c3cccc4nccnc34)cc2)cs1 gave pEC50 of 6.00 to 6.70
